Tested on: E-selectin
testSummary: Regulation of E-selectin expression in endothelial cells
Format: cell-based
conditionSet: endothelial cell gene expression

{"columns": ["smi", "regulation of E-selectin expression"],
 "data": [
  ["O=C(/C=C/c1cccc(S(=O)(=O)Nc2ccccc2)c1)NO", "almost no effect"],
  ["CCCC(CCC)C(=O)O", "almost no effect"]
]}

###

Test system: t-PA mRNA in HUVECs
testSummary: C100: dose giving a 100% increase of t-PA mRNA in HUVEC (24 h)
Type: cell-based, human
quantityMeasured: C100 tPA (µM)

{"columns": ["smi", "quantityMeasured", "valueMeasured"],
 "data": [
  ["O=C(CCCCCCC(=O)Nc1ccccc1)NO", "C100 tPA", 0.1],
  ["O=C(/C=C/c1cccc(S(=O)(=O)Nc2ccccc2)c1)NO", "C100 tPA", 0.2],
  ["Nc1ccccc1NC(=O)c1ccc(CNC(=O)OCc2cccnc2)cc1", "C100 tPA", 0.3],
  ["Nc1ccccc1NC(=O)c1ccc(CNc2nccc(-c3cccnc3)n2)cc1", "C100 tPA", 0.1],
  ["CCN(CC)Cc1ccc2cc(COC(=O)Nc3ccc(C(=O)NO)cc3)ccc2c1.Cl", "C100 tPA", 0.05],
  ["CCCCc1nc2cc(/C=C/C(=O)NO)ccc2n1CCN(CC)CC", "C100 tPA", 0.05]
]}

###

Tested on: t-PA mRNA expression in human umbilical vein endothelial cells (HUVECs)
testSummary: In vitro dose response: t-PA mRNA (and protein) expression in HUVEC after 24 h
Format: cell-based
conditionSet: present-tense Examples 3-9
quantityMeasured: concentration at which a significant increase of t-PA mRNA levels is seen

{"columns": ["molecule", "studySystem", "valueMeasured"],
 "data": [
  ["CCN(CC)Cc1ccc2cc(COC(=O)Nc3ccc(C(=O)NO)cc3)ccc2c1.Cl [Givinostat]", "t-PA mRNA expression in human umbilical vein endothelial cells (HUVECs)", "10 nM"],
  ["Nc1ccccc1NC(=O)c1ccc(CNc2nccc(-c3cccnc3)n2)cc1 [Mocetinostat]", "t-PA mRNA expression in human umbilical vein endothelial cells (HUVECs)", "10 nM"],
  ["Cn1cc(CNCC2CCN(c3ncc(C(=O)NO)cn3)CC2)c2ccccc21 [JNJ-26481585]", "t-PA mRNA expression in human umbilical vein endothelial cells (HUVECs)", "1 nM"],
  ["CN(C)Cc1c(C(=O)NCCOc2ccc(C(=O)NO)cc2)oc2ccccc12 [PCI-24781]", "t-PA mRNA expression in human umbilical vein endothelial cells (HUVECs)", "1 nM"],
  ["Cc1nn(C)cc1CN1CCC(c2ccc(C(=O)Nc3ccccc3N)cc2)CC1 [CXD101]", "t-PA mRNA expression in human umbilical vein endothelial cells (HUVECs)", "10 nM"]
]}

###

Test system: TNF-a suppressed t-PA mRNA in HUVECs
testSummary: TNF-alpha suppression of t-PA mRNA in HUVEC: anti-inflammatory substances versus Givinostat
Format: cell-based, human
conditionSet: HUVEC, TNF-a 1 h then substance; ASA 1 mM, IBU 1 mM
quantityMeasured: effect on TNF-a mediated suppression of t-PA expression

{"columns": ["compound", "valueMeasured"],
 "data": [
  ["CC(C)Cc1ccc(C(C)C(=O)O)cc1 (centres unmarked) [IBU, ibuprofen]", "not counteracted"],
  ["CC(=O)Oc1ccccc1C(=O)O [ASA, acetylsalicylic acid]", "not counteracted"],
  ["CC(C)Cc1ccc(C(C)C(=O)O)cc1 (centres unmarked) [ibuprofen]", "unable to reverse"],
  ["CC(=O)Oc1ccccc1C(=O)O [aspirin]", "unable to reverse"]
]}

Reference for the values: patent US20230094176A1
